System: SNB-19 CNS
measurement.protocol: NCI tumour cell line growth inhibition, 48 h
experimental.readout: TGI

INSERT INTO measurements (compound, result) VALUES
  ('O=c1cc(CO)n(CCc2c[nH]c3ccccc23)cc1O', '> 100 µM'),
  ('Cc1cc2cccnc2c2ncccc12', '> 100 µM'),
  ('COc1cc(C2S/C(=C/c3ccccc3)C(=O)N2c2cc(Cl)ccc2Cl)cc(OC)c1OC (stereo unspecified)', '> 100 µM'),
  ('O=C(COc1ccc(/C=C2\Oc3ccccc3C2=O)cc1)Nc1nccs1', '> 100 µM'),
  ('O=S1(=O)NNC(=NCc2ccc(Cl)c(Cl)c2)c2ccccc21', '> 100 µM'),
  ('O=C(CCN1CCOCC1)Nc1ccc(F)cc1F', '> 100 µM'),
  ('N=Nc1c(OC(=O)Nc2ccccc2)[nH]c2ccccc12', '63 µM'),
  ('C=CCN1C(=O)CC1N(CC=C)S(=O)(=O)c1ccc(C)cc1 (stereo unspecified)', '> 100 µM'),
  ('Cc1c(C(=O)CC(=O)C(=O)Nc2c(C(C)C)cccc2C(C)C)[n+](=O)c2ccccc2n1[O-]', '37.9 µM'),
  ('CN1CCN(c2ccc(-c3ccc4ncc(C#N)c(Nc5ccc(F)c(Cl)c5)c4c3)cc2)CC1', '19.2 µM'),
  ('COc1ccc(-c2nn(-c3ccc(NC(=O)c4ccc(Cl)c(C(F)(F)F)c4)cc3)cc2-c2ccncc2)cc1Cl', '> 100 µM');

* * *

System: HT29 colon
measurement.protocol: NCI tumour cell line growth inhibition, 48 h
experimental.readout: TGI

INSERT INTO measurements (molecule, system_tested, result) VALUES
  ('Cc1nc2ccccc2c(=O)n1-c1n[nH]c2ccccc12', 'HT29 colon', '> 100 µM'),
  ('Cc1cc2cccnc2c2ncccc12', 'HT29 colon', '16 µM'),
  ('C[C@@H](C1CCC2C3C(=CC(=O)[C@@]21C)[C@H](C)[C@]1(CCC(=O)O1)C1OC31)[C@H]1C[C@]2(C)O[C@@](C)(O1)OC2(C)C (stereo partly drawn)', 'HT29 colon', '> 100 µM'),
  ('COc1ccc(N)c(C(O)CCNC(C)=O)c1 (stereo not drawn)', 'HT29 colon', '> 100 µM'),
  ('COc1cc2cc[n+](C)c(Cc3ccccc3)c2cc1OC', 'HT29 colon', '> 100 µM'),
  ('COc1cc2c(c(OC)c1OC)C(=O)CC(c1cccc(NC(=O)c3ccc(Br)cc3)c1)O2 (stereo not drawn)', 'HT29 colon', '> 100 µM'),
  ('O=C1c2cccc3cc([N+](=O)[O-])cc(c23)C(=O)N1NC1=NCCN1', 'HT29 colon', '> 100 µM'),
  ('CC(C)(C)N/N=C(\Cc1occc(=O)c1O)C(=O)Nc1ccc([N+](=O)[O-])cc1[N+](=O)[O-]', 'HT29 colon', '> 100 µM'),
  ('Nc1nc(Cl)c(N)c(NCC2(CO)CC(Cc3ccccc3)C2)n1 (stereo not drawn)', 'HT29 colon', '> 100 µM'),
  ('O=c1[nH]c(=O)n(C2CC(O)C(CO)O2)cc1OCCc1ccccc1 (stereo not drawn)', 'HT29 colon', '> 100 µM'),
  ('CCCCCCCC(=O)OC[C@@H](C[As](=O)(O)O)OC(=O)CCCCCCC', 'HT29 colon', '28.1 µM'),
  ('O=C1c2ccccc2C(=O)C2C1C1C(=O)c3ccccc3C(=O)C21 (stereo not drawn)', 'HT29 colon', '> 100 µM'),
  ('Cn1cc(C2=C(c3c4n(c5ccccc35)CCCC4)C(=O)NC2=O)c2ccccc21', 'HT29 colon', '> 25 µM');

* * *

Tested on: SK-MEL-2 melanoma
measurement.protocol: NCI tumour cell line growth inhibition, 48 h
Listed below: TGI values for each entry.
experimental.readout: TGI (µM)

INSERT INTO assay_data (compound, limit_operator, measured_number) VALUES
  ('CSc1ccccc1P(c1ccccc1SC)c1ccccc1SC', '>', 100),
  ('Cc1cc2cccnc2c2ncccc12', '=', 31.9),
  ('CCSc1c(C)c2c(n(Cc3ccc(OC)cc3)c1=O)Cc1ccccc1C2', '=', 66),
  ('[N-]=[N+]=Nc1ccc(CCN2CCN(c3cccc(C(F)(F)F)c3)CC2)cc1I', '>', 100),
  ('CN(Cc1cnc(N)nc1N)c1ccc(C(=O)O)cc1', '>', 100),
  ('Nc1nc(Cl)c(N)c(NCC2(CO)CC(Cc3ccccc3)C2)n1 (stereo not given)', '>', 100),
  ('COc1cc(N2CCN(C(C)C)CC2)ccc1Nc1nc(Nc2cccc3ncccc23)c2cc[nH]c2n1', '=', 11.5),
  ('CCC(CS(=O)(=O)O)[N+](=O)[O-] (stereo not given)', '>', 100),
  ('[C-]#[O+].[Cl][Sn]([Cl])[Cl].[Cl][Sn]([Cl])[Cl].[Pt].c1ccc([PH+](c2ccccc2)c2ccccc2)cc1.c1ccc([PH+](c2ccccc2)c2ccccc2)cc1', '>', 100),
  ('COc1ccc(C[n+]2c3ccccc3n3c4ccc(N)cc4ccc32)c(OC)c1OC', '=', 14.8);

* * *

Quick list: GI50 per entry.
Tested on: SF-539 CNS
measurement.protocol: NCI tumour cell line growth inhibition, 48 h
experimental.readout: GI50

INSERT INTO assay_data (molecule, result) VALUES
  ('Cc1onc(-c2c(F)cccc2Cl)c1-c1ncc(-c2ccc(Cl)cc2)o1', '5.07 µM'),
  ('CN(CCC#N)c1ccc(/C=C(\C#N)c2cccc(C(F)(F)F)c2)cc1', '4.31 µM'),
  ('C=C1C(=O)O[C@H]2[C@H]1CC/C(Cn1cc(CNCCc3c[nH]c4ccc(Cl)cc34)nn1)=C\CC[C@@]1(C)O[C@@H]21', '4.23 µM'),
  ('O=C(/C=C/c1ccccc1)c1c[nH]c2ccccc2c1=O', '2.55 µM'),
  ('COc1cc(N2CCN(C(C)C)CC2)ccc1Nc1nc(Nc2cccc3ncccc23)c2cc[nH]c2n1', '3.94 µM'),
  ('O=C(/C=C/C12c3ccccc3C(c3ccccc31)C1C(=O)N(c3ccccc3)C(=O)C12)c1ccc(Cl)cc1 (stereo unspecified)', '1.69 µM');

* * *

Test system: CCRF-CEM leukemia
measurement.protocol: NCI tumour cell line growth inhibition, 48 h
experimental.readout: TGI

INSERT INTO results (compound, system_tested, result) VALUES
  ('COc1cccc(/C(CC(O)(C(F)(F)F)C(F)(F)F)=N\N(C)C)c1', 'CCRF-CEM leukemia', '> 100 µM'),
  ('CN1CCC(CNC(=O)CCCCCCCCC(=O)NCC2(c3ccccc3)CCN(C)CC2)(c2ccccc2)CC1', 'CCRF-CEM leukemia', '> 100 µM'),
  ('CC(CN(C)C)C(=O)c1ccccc1C(=O)O (stereo not given)', 'CCRF-CEM leukemia', '30.3 µM'),
  ('CC12CCC([C@H](N3CCOCC3)/C1=N\OCCN1CCCC1)C2(C)C (stereo not given in full)', 'CCRF-CEM leukemia', '> 100 µM'),
  ('C/C(=N/NC(=O)c1ccncc1)c1ccc(NC(=O)C(=O)Nn2c(=S)[nH]c3ccccc3c2=O)cc1', 'CCRF-CEM leukemia', '> 100 µM'),
  ('Cc1nc2ccccc2c(=O)n1/N=C(\N=Nc1cc(Cl)ccc1Cl)c1cccc(-c2ccco2)c1', 'CCRF-CEM leukemia', '> 10 µM'),
  ('N#CCCN(CCC#N)C(=O)c1cccc(C(=O)N(CCC#N)CCC#N)c1', 'CCRF-CEM leukemia', '> 100 µM'),
  ('O=C1NCN(c2ccccc2)C12CCN(CCc1ccc3[nH]c(=S)[nH]c3c1)CC2', 'CCRF-CEM leukemia', '22 µM'),
  ('COC(=O)C1CC(=O)CCC1c1ccccc1 (stereo not given)', 'CCRF-CEM leukemia', '> 100 µM'),
  ('[N-]=[N+]=Nc1ccc(CCN2CCN(c3cccc(C(F)(F)F)c3)CC2)cc1I', 'CCRF-CEM leukemia', '> 100 µM');

* * *

Tested on: UO-31 renal
measurement.protocol: NCI tumour cell line growth inhibition, 48 h
experimental.readout: TGI

INSERT INTO results (molecule, experimental_readout, result) VALUES
  ('CCC(CC)C(=O)OC[n+]1ccc(-c2c(COC(=O)NC(C)C)c(COC(=O)NC(C)C)c3n2CCC3)cc1', 'TGI', '> 100 µM'),
  ('Cn1c(NN)nc(-c2ccc([N+](=O)[O-])cc2)c(C#N)c1=O', 'TGI', '33.8 µM'),
  ('Cc1onc(-c2c(F)cccc2Cl)c1-c1ncc(-c2ccc(Cl)cc2)o1', 'TGI', '> 100 µM'),
  ('COC(=O)C1=C(OC(=O)/C(=C/c2ccc(Cl)cc2Cl)c2ccc(Cl)cc2Cl)C(C(=O)OC)[C@@]2(O)[C@@H](C(=O)OC)[C@H](C)C[C@@H]1[C@@H]2C(=O)OC (some centres undefined)', 'TGI', '> 100 µM');
